From: patent US20250011363A1

target entity: acetylcholine receptor
method notes: SPR, AchR immobilized on CM5 chip, peptide 10 µM
Listed here: items and their measured Binding affinity (RU).
Give your result in RU as a bare value.

Worked cases, Binding affinity (RU) given:
binder | quantity measured | experimental value
RLYYRK [6mer-2-209] | Binding affinity (RU) | 148
RGQYKK [6mer-2-239] | Binding affinity (RU) | 125
RSQTKR [6mer-2-234] | Binding affinity (RU) | 142
KRIQRR [6mer-2-254] | Binding affinity (RU) | 148
KVFRKK [6mer-2-252] | Binding affinity (RU) | 148
RRVQKR [6mer-2-204] | Binding affinity (RU) | 142
RSQQRK [6mer-2-208] | Binding affinity (RU) | 128

In the following, a different binder is considered.
Fill in the blank: the reported Binding affinity (RU) of RVVYRK [6mer-2-222] is ____.
127
